Exercise: for every item that follows, state its recorded Renilla luciferase signal.
- Test system: HEK293T (UBE3A T485A transfected, BAR Wnt reporter)
- protocolNotes: Renilla luciferase signal (cell health) relative to plate median (fold (linear ratio)); higher = higher Renilla signal
- studyConditions: concentration: 10 uM; 24 h
Whole data set: some 1,100 compounds, median “Renilla luciferase signal (cell health) relative to plate median” near 0.97, cut for the highest 2% near 1.6. The list comes from a sample in which the highest values are over-represented; it also holds close analogues and randomly drawn compounds.
Number only, please.

QUERY: Supply recorded Renilla luciferase signal for COc1cccc(C(=O)NN(C(=O)c2cc(C)cc(C)c2)C(C)(C)C)c1C [Methoxyfenozide] here.
RESULT: 1.04

QUERY: Supply recorded Renilla luciferase signal for CCCCOC(=O)c1ccccc1C(=O)O [Monobutyl phthalate] here.
RESULT: 1.21

QUERY: Supply recorded Renilla luciferase signal for CCOC(=O)C(O)(c1ccc(Cl)cc1)c1ccc(Cl)cc1 [Chlorobenzilate] here.
RESULT: 0.929

QUERY: Supply recorded Renilla luciferase signal for O=C(Nc1ccccc1)c1ccccc1I here.
RESULT: 0.913

QUERY: Supply recorded Renilla luciferase signal for ClC(Cl)=C(c1ccc(Cl)cc1)c1ccc(Cl)cc1 here.
RESULT: 1.13

QUERY: Supply recorded Renilla luciferase signal for CCCCCOC(=O)c1ccccc1C(=O)OCCCCC [Dipentyl phthalate] here.
RESULT: 0.91

QUERY: Supply recorded Renilla luciferase signal for O=C(O)C(F)(F)C(F)(F)C(F)(F)C(F)(F)C(F)(F)F here.
RESULT: 0.896

QUERY: Supply recorded Renilla luciferase signal for COP(=O)(OC)O/C(C)=C/C(=O)N(C)C here.
RESULT: 1.09

QUERY: Supply recorded Renilla luciferase signal for O=[As][O-].[Na+] [Sodium arsenite] here.
RESULT: 0.0446

QUERY: Supply recorded Renilla luciferase signal for CO/C=C(/C(=O)OC)c1ccccc1COc1cccc(C(F)(F)F)n1 here.
RESULT: 0.82

QUERY: Supply recorded Renilla luciferase signal for CCCCN(CC)c1c([N+](=O)[O-])cc(C(F)(F)F)cc1[N+](=O)[O-] here.
RESULT: 0.917

QUERY: Supply recorded Renilla luciferase signal for CC12CC1(C)C(=O)N(c1cc(Cl)cc(Cl)c1)C2=O (centres undefined) here.
RESULT: 1.07

QUERY: Supply recorded Renilla luciferase signal for CCNC(=O)NC(=O)/C(C#N)=N/OC here.
RESULT: 1.15

QUERY: Supply recorded Renilla luciferase signal for CN1COCN(Cc2cnc(Cl)s2)C1=N[N+](=O)[O-] here.
RESULT: 0.959

QUERY: Supply recorded Renilla luciferase signal for N=C(Nc1ccccc1)Nc1ccccc1 here.
RESULT: 0.895

QUERY: Supply recorded Renilla luciferase signal for CCOP(=S)(OCC)SCn1c(=O)oc2cc(Cl)ccc21 here.
RESULT: 1.11

QUERY: Supply recorded Renilla luciferase signal for Nc1c(Cl)cc([N+](=O)[O-])cc1Cl here.
RESULT: 0.77

QUERY: Supply recorded Renilla luciferase signal for CC1=C(C(=O)Nc2ccccc2)SCCO1 here.
RESULT: 0.949

QUERY: Supply recorded Renilla luciferase signal for CC(C)(C)c1ccc(CSc2cnn(C(C)(C)C)c(=O)c2Cl)cc1 here.
RESULT: 0.233

QUERY: Supply recorded Renilla luciferase signal for CCCOC/C(=N\c1ccc(Cl)cc1C(F)(F)F)n1ccnc1 here.
RESULT: 0.929

QUERY: Supply recorded Renilla luciferase signal for O=C(O)C(F)(F)C(F)(F)C(F)(F)C(F)(F)C(F)(F)C(F)(F)C(F)(F)C(F)(F)C(F)(F)C(F)(F)F here.
RESULT: 0.868

QUERY: Supply recorded Renilla luciferase signal for O=C1c2ccccc2C(=O)N1SC(Cl)(Cl)Cl here.
RESULT: 1.17

QUERY: Supply recorded Renilla luciferase signal for CCC(C)(CC)c1cc(NC(=O)c2c(OC)cccc2OC)on1 here.
RESULT: 0.964

QUERY: Supply recorded Renilla luciferase signal for CCOP(=S)(OCC)OC(Cl)C(Cl)(Cl)Cl (centres undefined) here.
RESULT: 0.769

QUERY: Supply recorded Renilla luciferase signal for CN(C)c1ccc(C(=O)c2ccc(N(C)C)cc2)cc1 here.
RESULT: 0.702

QUERY: Supply recorded Renilla luciferase signal for CN1C2CC(OC(=O)C(CO)c3ccccc3)CC1C1OC12 (centres undefined) here.
RESULT: 0.834

QUERY: Supply recorded Renilla luciferase signal for C#CCN1C(=O)COc2cc(F)c(N3C(=O)C4=C(CCCC4)C3=O)cc21 here.
RESULT: 1.11

QUERY: Supply recorded Renilla luciferase signal for Cc1ccc(N)cc1N here.
RESULT: 1.09

QUERY: Supply recorded Renilla luciferase signal for O=S(=O)(O)C(F)(F)C(F)(F)C(F)(F)C(F)(F)C(F)(F)C(F)(F)C(F)(F)C(F)(F)F here.
RESULT: 0.948

QUERY: Supply recorded Renilla luciferase signal for Cc1ccccc1[N+](=O)[O-] here.
RESULT: 1.14

QUERY: Supply recorded Renilla luciferase signal for CSC1=N[C@@](C)(c2ccccc2)C(=O)N1Nc1ccccc1 here.
RESULT: 0.525

QUERY: Supply recorded Renilla luciferase signal for CN/C(=N\[N+](=O)[O-])NCc1cnc(Cl)s1 here.
RESULT: 1.05

QUERY: Supply recorded Renilla luciferase signal for [OH][Sn]([c]1ccccc1)([c]1ccccc1)[c]1ccccc1 [Triphenyltin hydroxide] here.
RESULT: 0.0103

QUERY: Supply recorded Renilla luciferase signal for COP(=O)(OC)OC=C(Cl)Cl here.
RESULT: 0.853

QUERY: Supply recorded Renilla luciferase signal for O=C(O)CNCP(=O)(O)O [Glyphosate] here.
RESULT: 1.07

QUERY: Supply recorded Renilla luciferase signal for C[Si](Cn1cncn1)(c1ccc(F)cc1)c1ccc(F)cc1 here.
RESULT: 0.986

QUERY: Supply recorded Renilla luciferase signal for CCSC(=O)N1CCCCCC1 [Molinate] here.
RESULT: 1.04

QUERY: Supply recorded Renilla luciferase signal for CC(C)COC(=O)c1ccccc1C(=O)OCC(C)C [Diisobutyl phthalate] here.
RESULT: 0.867

QUERY: Supply recorded Renilla luciferase signal for Nc1nc(N)nc(NC2CC2)n1 here.
RESULT: 1.05
